Test system: SK-MEL-28 melanoma
assay procedure: NCI tumour cell line growth inhibition, 48 h
reported endpoint: TGI

compound=CC1=CC(C)=NN=C(N)N1S(=O)(=O)c1cc(C)c(Cl)cc1SCc1ccccc1 reported_endpoint=TGI observed_value="> 100 µM"
compound=CNC(=O)NCNC(=O)NC reported_endpoint=TGI observed_value="> 100 µM"
compound=O=C(O)C[C@@H](Cl)[C@H](NC(=O)OCc1ccccc1)C(=O)O reported_endpoint=TGI observed_value="> 100 µM"
compound=NS(=O)(=O)c1nnc(NC(=O)C23CC4CC(CC(C4)C2)C3)s1 reported_endpoint=TGI observed_value="> 100 µM"
compound=CCOC(=O)NN(C(=O)OCC)C(C(=O)C1=CCCCC1)N(NC(=O)OCC)C(=O)OCC reported_endpoint=TGI observed_value="> 100 µM"
compound="COc1ccc(/C=C2/CSCC3=C2NC(=S)NC3c2ccc(OC)c(OC)c2OC)c(OC)c1OC (stereo unspecified)" reported_endpoint=TGI observed_value="81.9 µM"
compound=CCCCOC(=O)c1ccc(N)cc1 reported_endpoint=TGI observed_value="> 100 µM"
compound=COc1cc(C(=O)O[C@H](C(=O)NCCCNC(=O)[C@@H](OC(=O)c2cc(OC)cc3c(C)cccc23)[C@]2(C)CO2)[C@]2(C)CO2)c2cccc(C)c2c1 reported_endpoint=TGI observed_value="0.142 µM"
compound=CC(=O)/C(=C/c1ccccc1)C(=O)CC(C)C reported_endpoint=TGI observed_value="24.9 µM"
compound="COc1ccccc1Cc1ccc(C2C=CC3(CC(=O)C=C3C)C(=O)C2)o1 (stereo unspecified)" reported_endpoint=TGI observed_value="> 100 µM"
compound=S=C(NCCc1ccccn1)N/N=C/c1ccccn1 reported_endpoint=TGI observed_value="> 100 µM"

###

Below, each entry is listed alongside its reported TGI.
Test system: SNB-19 CNS
assay procedure: NCI tumour cell line growth inhibition, 48 h
reported endpoint: TGI

molecule="C=C1CC2(CC(c3ccccc3Cl)OC(c3ccccc3Cl)C2)OC1=O (stereo not given)" observed_value="29.5 µM"
molecule=O=C(Nc1ccc(Cc2ccccc2)cc1)Nc1nn(C(=O)Nc2ccc(Cc3ccccc3)cc2)c2ccccc12 observed_value="> 100 µM"
molecule=COc1cc(OC)c(C(=O)c2cccs2)cc1N observed_value="> 100 µM"
molecule=CC1CCN(Cc2ccc(NC(=O)c3cc4ccc5cccnc5c4[nH]3)cc2)CC1 observed_value="27.6 µM"
molecule="O=C(Nc1ccc(Cl)cc1C(F)(F)F)C(=O)C1CCCS1(=O)=O (stereo not given)" observed_value="> 100 µM"
molecule=COC(=O)C1CCN(C(=O)OC(C)(C)C)CC1 observed_value="> 100 µM"
molecule="CC12C3C4C1C1C2C3C41CO (stereo not given)" observed_value="> 100 µM"
molecule=COc1cc(/C=C(\NC(=O)c2ccccc2)c2nc3ccc4c(c3[nH]2)C(=O)c2ccccc2C4=O)cc(OC)c1OC observed_value="> 100 µM"
molecule="COc1ccc(/C=C2/CSCC3=C2NC(=S)NC3c2ccc(OC)c(OC)c2OC)c(OC)c1OC (stereo not given)" observed_value="51.5 µM"
molecule="N#CC(N=Nc1ccccc1C(=O)O)C(N)=O (stereo not given)" observed_value="> 100 µM"

###

Tested on: SNB-19 CNS
assay procedure: NCI tumour cell line growth inhibition, 48 h
Below, each entry is listed alongside its reported TGI.
reported endpoint: TGI

compound_string=CCCCCCCCCCCCCCCCCc1nccn1CCOCCO reported_endpoint=TGI observed_value="10.3 µg/mL"
compound_string=COC(=O)c1ccccc1N(C(=O)c1ccccc1)c1ccccc1C reported_endpoint=TGI observed_value="> 100 µM"
compound_string=CN(C)CCCN(CCC1CCCCC1)CCC1CCCCC1 reported_endpoint=TGI observed_value="18.8 µM"
compound_string=N#Cc1ccc(Cc2ccccn2)cc1Cl reported_endpoint=TGI observed_value="> 100 µM"
compound_string=CCOC(=O)C(=O)Nc1nc2c(OCC)cccc2s1 reported_endpoint=TGI observed_value="> 100 µM"

###

System: HOP-92 NSCLC
assay procedure: NCI tumour cell line growth inhibition, 48 h
Below, each entry is listed alongside its reported TGI.
reported endpoint: TGI

molecule=CN(CC(=O)O)c1ncc2c(n1)C=CCC2 reported_endpoint=TGI observed_value="> 100 µM"
molecule="CCC(=O)N1C(=O)OCC1C(C)C (stereo not drawn)" reported_endpoint=TGI observed_value="> 100 µM"
molecule="CCc1c2c(cc3c1CC1(C3)Cc3cc4c(c(C(=O)OC)c3C1)CCCC4)CCCC2 (stereo not drawn)" reported_endpoint=TGI observed_value="> 100 µM"

###

Below, each entry is listed alongside its reported TGI.
Tested on: HCT-15 colon
assay procedure: NCI tumour cell line growth inhibition, 48 h
reported endpoint: TGI (µM)

compound=CCN1CCC(Nc2ccnc3cc(Cl)ccc23)CC1 measurement_units=µM comparative_sign=> observed_value=100
compound=Cc1c(O)c(N=Nc2nc3ccccc3s2)c2ccccc2c1O measurement_units=µM comparative_sign=> observed_value=50
compound=O=[N+]([O-])C(/C=C(\Cl)[N+](=O)[O-])=C1Nc2ccccc2N1 measurement_units=µM comparative_sign=> observed_value=100
compound=O=S(=O)(CCN1CCOCC1)Nc1cc(-c2ccc3ncnc(Nc4ccc(F)c(Cl)c4)c3c2)cnc1Cl measurement_units=µM comparative_sign== observed_value=28.9
compound="BrC(Br)=C1C(=C(Br)Br)C(Br)C1Br (configuration not stated)" measurement_units=µM comparative_sign== observed_value=1.73
compound=CC1=CC(C)=NN=C(N)N1S(=O)(=O)c1cc(C)c(Cl)cc1SCc1ccccc1 measurement_units=µM comparative_sign=> observed_value=100
compound=COc1cc(C(=O)O[C@H](C(=O)NCCCNC(=O)[C@@H](OC(=O)c2cc(OC)cc3c(C)cccc23)[C@]2(C)CO2)[C@]2(C)CO2)c2cccc(C)c2c1 measurement_units=µM comparative_sign== observed_value=0.723

###

Test system: OVCAR-5 ovarian
assay procedure: NCI tumour cell line growth inhibition, 48 h
Below, each entry is listed alongside its reported TGI.
reported endpoint: TGI

molecule=CCCc1n(Cc2ccc3ccccc3c2)cc[n+]1Cc1ccc2ccccc2c1 reported_endpoint=TGI observed_value="3.32 µM"
molecule=CCCCCCCCCCCCCCCC1=NCCN1 reported_endpoint=TGI observed_value="5.53 µM"
molecule="COC(=O)C1CCC(=S)N1C(=O)OCc1ccccc1 (stereo not drawn)" reported_endpoint=TGI observed_value="> 100 µM"
molecule=NCCc1ccc(S(=O)(=O)F)cc1 reported_endpoint=TGI observed_value="> 100 µM"
molecule="C=C(CO)CC(O)c1cc(OC)ccc1OC (stereo not drawn)" reported_endpoint=TGI observed_value="> 100 µM"
molecule=COc1cccc(/C=N/NC(=O)CSCC(=O)N/N=C/c2cccc(OC)c2OC)c1OC reported_endpoint=TGI observed_value="> 100 µM"
molecule="N#CC(N=Nc1ccccc1C(=O)O)C(N)=O (stereo not drawn)" reported_endpoint=TGI observed_value="> 100 µM"
molecule="N#CC(/C(CCC(=O)Nc1ccc(Cl)cc1)=N/NC(=O)c1cc2ccccc2cc1O)c1ccccc1 (stereo not drawn)" reported_endpoint=TGI observed_value="60.6 µM"

###

Test system: SF-539 CNS
assay procedure: NCI tumour cell line growth inhibition, 48 h
Below, each entry is listed alongside its reported TGI.
reported endpoint: TGI

compound=NS(=O)(=O)c1nnc(NC(=O)C23CC4CC(CC(C4)C2)C3)s1 assayed_system="SF-539 CNS" observed_value="> 100 µM"
compound=N#Cc1ccc(Cc2ccccn2)cc1Cl assayed_system="SF-539 CNS" observed_value="> 100 µM"
compound="CO[C@H]1C=CO[C@@]2(C)Oc3c(C)c(O)c4c(O)c(c(CN5CCN(C)CC5)c(O)c4c3C2=O)NC(=O)/C(C)=C\\C=C[C@H](C)[C@H](O)C(C)[C@@H](O)C(C)[C@H](OC(C)=O)[C@@H]1C (some centres undefined)" assayed_system="SF-539 CNS" observed_value="> 68.5 µM"
compound=Cc1c(-c2ccc(C3CCCCC3)cc2)nc2ccc(F)cc2c1C(=O)O assayed_system="SF-539 CNS" observed_value="> 70 µM"

###

Below, each entry is listed alongside its reported TGI.
System: A549 NSCLC
assay procedure: NCI tumour cell line growth inhibition, 48 h
reported endpoint: TGI

compound=CC(=O)Nc1ccc2nc(-c3ccccn3)c(-c3ccccn3)nc2c1 reported_endpoint=TGI observed_value="> 100 µM"
compound="COc1cc2c(c(OC)c1OC)-c1ccc(SC)c(=O)cc1C(CC(=O)Oc1cccc([N+](=O)[O-])c1)C2 (centres undefined)" reported_endpoint=TGI observed_value="> 100 µM"
compound=COc1cc(CSc2ccc(O)cc2)cc(OC)c1OC reported_endpoint=TGI observed_value="> 100 µM"
compound=NNC(=O)CC(=O)Nc1cccc(Cl)c1 reported_endpoint=TGI observed_value="> 100 µM"
compound=c1cc(-c2ccc(-c3ccc(-c4ccc(-c5ccncc5)o4)cc3)o2)ccn1 reported_endpoint=TGI observed_value="35.7 µM"
compound=CN(C)CCN1C(=O)c2cccc3cc([N+](=O)[O-])cc(c23)C1=O reported_endpoint=TGI observed_value="0.397 µM"
compound=CCCCOC(=O)c1ccc(N)cc1 reported_endpoint=TGI observed_value="> 100 µM"
compound=COc1ccc(C2=NN(c3ccccc3)C[N+](c3ccc(C)cc3)=N2)cc1 reported_endpoint=TGI observed_value="> 100 µM"
compound=O=C1CSC(=S)N1c1ccco1 reported_endpoint=TGI observed_value="> 100 µM"
compound=Cc1n[nH]c(=S)n(C)c1=S reported_endpoint=TGI observed_value="> 100 µM"
compound="N#CC(N=Nc1ccccc1C(=O)O)C(N)=O (centres undefined)" reported_endpoint=TGI observed_value="> 100 µM"
compound="Cc1ccc(C2(c3ccc(Cl)cc3)c3ccccc3C3=NCCN32)cc1 (centres undefined)" reported_endpoint=TGI observed_value="25.3 µM"
compound=COc1cc2c3cc1Oc1c(OC)c(OC)cc4c1C(=NCC4)Cc1ccc(cc1)Oc1cc(ccc1O)C[C@H]3N(C)CC2 reported_endpoint=TGI observed_value="> 100 µM"
compound=C[C@H]1/C(=C/C(=O)OCCN(C)C)CC[C@H]2[C@H]1C(=O)C[C@H]1C(C)(C)[C@@H](O)CC[C@]21C reported_endpoint=TGI observed_value="> 100 µM"

Attribution: PubChem BioAssay (NCI)
